Measured values drawn from the supplement of paper PMC10567573 for this set.

What protein stability index was measured for each of the following?
# experimental_details: protein stability index of a GFP-peptide fusion (GPS, HEK-293T) (PSI 1-6); higher = more stable;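 further: 24-mer peptide tiles fused after GFP, lentivirally expressed, FACS-sorted into six equal bins by GFP/DsRed ratio, decoded by Illumina sequencing, PSI is the read-weighted mean bin number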
# condition_set: treatment: MLN4924 1 uM, 8 h; c terminus: a fixed tail appended
Give the figure by itself; no unit, no explanation.

### Prompt Reported protein stability index for KALLYLPIAPEVEDPEENPYGPPP [RBBP5] : what is it?
### Response 4.07

### Prompt Reported protein stability index for ERLKVMCEEALCSNLSVENVADTL [SPOPL] : what is it?
### Response 4.09

### Prompt Reported protein stability index for SVDWLSQSSCSGPTHTPRPADFSL [VENTX] : what is it?
### Response 3.28

### Prompt Reported protein stability index for FFIQTVRPKDTVMCYRVRWEEAAP [MYORG] : what is it?
### Response 2.56

### Prompt Reported protein stability index for SLFARAMQVLVTAISPGRFPEALD [ANKRD9] : what is it?
### Response 2.8

### Prompt Reported protein stability index for YEIEIQAEDGGAYLATAKVLITVE [PCDHGA10] : what is it?
### Response 2.89

### Prompt Reported protein stability index for TRNSPRGCRLPSISSTTCGRQLEK [SPATS1] : what is it?
### Response 4

### Prompt Reported protein stability index for HSTLEYKVKERLGTLKNPPKKKMK [LCOR] : what is it?
### Response 4.73

### Prompt Reported protein stability index for RRFGAVACGVAMELYVFGGVRSRE [GAN] : what is it?
### Response 2.26

### Prompt Reported protein stability index for ELAFAEDLVLDEEGARAAGLGELG [ESRRA] : what is it?
### Response 5.19

### Prompt Reported protein stability index for LSDKSCQSFISWTGDGWEFKLADP [ETS2] : what is it?
### Response 2.59

### Prompt Reported protein stability index for HQQNKIKDLQKEQKTLQVKCQHYK [CEP70] : what is it?
### Response 4.6

### Prompt Reported protein stability index for RNGGSLADAISENYRIMSYFKEAE [WEE1] : what is it?
### Response 3.2

### Prompt Reported protein stability index for KVMIFKSSYSLSDMVSNIELPTRI [MIA2] : what is it?
### Response 2.17

### Prompt Reported protein stability index for SYRSFHSGGYGQDALGMDPMMEHE [CTNNB1] : what is it?
### Response 4.21

### Prompt Reported protein stability index for DVTADSKVLEALKLKGAEVTYMNM [PLD5] : what is it?
### Response 3.44

### Prompt Reported protein stability index for KAKPEPDILEEEKIYAYPSNITSE [TMEM192] : what is it?
### Response 4.83

### Prompt Reported protein stability index for PRPVQLDETHPYTVTSVSCCHGNT [NEK8] : what is it?
### Response 4.02

### Prompt Reported protein stability index for WRMLRPQLVNSSADNMLEYKSWLK [PPEF2] : what is it?
### Response 2.7

* * *

# experimental_details: protein stability index of a GFP-peptide fusion (GPS, HEK-293T) (PSI 1-6); higher = more stable
# condition_set: treatment: DMSO; c terminus: a fixed tail appended
property: protein stability index
Give the figure by itself; no unit, no explanation.

### Prompt Reported protein stability index for KNKPKKMGHIKPDLIDVDLIRGST [PHTF1] : what is it?
### Response 3.8

### Prompt Reported protein stability index for LAPVPTHSTVSELSRSPVATATSC [DUSP5] : what is it?
### Response 4.24

### Prompt Reported protein stability index for SYRPAYDQGGPVEILPFLYLGSAY [DUSP5] : what is it?
### Response 2.08

### Prompt Reported protein stability index for QCPGLGPAPTPTPPGRLGAPYSEA [ZBED3] : what is it?
### Response 4.35

### Prompt Reported protein stability index for YTGIVLLRCRKEFYQLVWSALPFI [POP5] : what is it?
### Response 3.12

### Prompt Reported protein stability index for HQEQVEDLTASHDAALLEMENNHT [MTUS2] : what is it?
### Response 5.51

### Prompt Reported protein stability index for LQHTQELFPQWHLPIKIAAIIASL [STEAP1] : what is it?
### Response 2.16

### Prompt Reported protein stability index for ADTNSDRLFTVNDVKVGGSKYGII [DCAF4] : what is it?
### Response 3.01
